Recorded values, source patent US20250340574A1.

molecular target: CFTR (F508del/MF-HBE cells) (Homo sapiens, UniProt P13569, DEL508-508); construct: human bronchial epithelial (HBE) cells derived from CF subjects heterozygous for F508del and a minimal function CFTR mutation (F508del/MF-HBE); endogenous in cells; host or cells: Primary human bronchial epithelial cells from CF subjects (F508del/MF genotype), differentiated at an air-liquid interface; assay: Ussing chamber assay of CFTR-mediated short-circuit currents, Assay A (0.1 μM to 25 μM, 6 concentrations); format: cell-based; settings: with 33 nM potentiator and 18 μM Tezacaftor, 20% human serum
Sequence (P13569 with tags, fused parts or gaps DEL508-508): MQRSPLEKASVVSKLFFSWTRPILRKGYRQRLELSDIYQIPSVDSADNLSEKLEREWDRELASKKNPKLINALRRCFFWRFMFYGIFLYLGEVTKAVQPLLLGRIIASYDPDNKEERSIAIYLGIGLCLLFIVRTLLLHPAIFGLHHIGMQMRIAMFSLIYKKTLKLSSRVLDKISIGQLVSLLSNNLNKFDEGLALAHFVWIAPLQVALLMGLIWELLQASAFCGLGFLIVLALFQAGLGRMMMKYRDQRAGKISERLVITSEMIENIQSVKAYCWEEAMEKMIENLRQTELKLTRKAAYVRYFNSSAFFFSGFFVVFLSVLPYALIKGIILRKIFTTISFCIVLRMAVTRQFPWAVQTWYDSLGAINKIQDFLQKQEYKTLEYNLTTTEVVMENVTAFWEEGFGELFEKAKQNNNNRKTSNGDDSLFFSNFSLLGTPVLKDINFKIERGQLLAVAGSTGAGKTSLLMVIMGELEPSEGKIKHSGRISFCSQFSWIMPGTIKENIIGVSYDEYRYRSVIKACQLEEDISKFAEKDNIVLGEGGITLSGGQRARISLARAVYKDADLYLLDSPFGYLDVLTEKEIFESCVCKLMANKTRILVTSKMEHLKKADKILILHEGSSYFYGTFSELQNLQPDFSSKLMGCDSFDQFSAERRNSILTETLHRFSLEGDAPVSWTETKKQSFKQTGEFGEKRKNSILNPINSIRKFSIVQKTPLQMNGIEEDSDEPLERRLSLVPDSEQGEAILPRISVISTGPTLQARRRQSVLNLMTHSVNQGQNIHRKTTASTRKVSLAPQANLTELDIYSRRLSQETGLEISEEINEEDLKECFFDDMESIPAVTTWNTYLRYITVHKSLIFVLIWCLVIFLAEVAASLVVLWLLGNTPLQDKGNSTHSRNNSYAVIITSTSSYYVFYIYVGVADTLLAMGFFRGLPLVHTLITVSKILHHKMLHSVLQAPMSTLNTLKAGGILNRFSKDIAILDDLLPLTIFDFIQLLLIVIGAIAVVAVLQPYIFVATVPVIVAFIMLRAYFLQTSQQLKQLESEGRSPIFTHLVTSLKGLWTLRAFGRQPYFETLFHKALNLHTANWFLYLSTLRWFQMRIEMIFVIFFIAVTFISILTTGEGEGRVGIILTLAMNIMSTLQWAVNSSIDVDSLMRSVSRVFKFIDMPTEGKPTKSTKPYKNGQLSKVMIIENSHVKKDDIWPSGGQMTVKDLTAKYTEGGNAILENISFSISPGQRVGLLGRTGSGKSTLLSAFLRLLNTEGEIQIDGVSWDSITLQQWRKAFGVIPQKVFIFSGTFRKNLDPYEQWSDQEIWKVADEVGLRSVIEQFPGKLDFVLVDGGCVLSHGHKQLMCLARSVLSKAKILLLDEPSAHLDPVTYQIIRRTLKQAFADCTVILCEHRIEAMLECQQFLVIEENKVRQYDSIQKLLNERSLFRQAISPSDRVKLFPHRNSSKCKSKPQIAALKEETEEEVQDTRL
Answer each item with its documented EC50.

Below are worked cases with known answers.
>  <molecule>
Cc1cccc(C)c1-c1cc2nc(n1)NS(=O)(=O)c1cccc(c1)C(=O)N(Cc1cnc3oc(C(C)C)c(C)c3n1)[C@H](CCC(C)(C)C)CO2 [Compound I-11]

>  <EC50>
< 1000 nM

$$$$
>  <molecule>
Cc1cccc(C)c1-c1cc2nc(n1)NS(=O)(=O)c1cccc(c1)C(=O)N(Cc1cnc3oc(C(C)C)cc3n1)[C@H](CC1CC1)CO2 [Compound I-57]

>  <EC50>
< 1000 nM

$$$$

List reported EC50 for each of these molecules:
1. Cc1cccc(C)c1-c1cc2nc(n1)NS(=O)(=O)c1cccc(c1)C(=O)N(Cc1cnc3oc(C(C)C)cc3n1)[C@H](CC1C3(CC3)C13CC3)CO2 [Compound I-101]
2. Cc1cccc(C)c1-c1cc2nc(n1)NS(=O)(=O)c1cccc(c1)C(=O)N(Cc1cnc3oc(C(C)C)cc3n1)[C@H](CCC(C)(C)F)CO2 (single isomer, unassigned) [Compound I-36]
3. Cc1cccc(C)c1-c1cc2nc(n1)NS(=O)(=O)c1cccc(c1)C(=O)N(Cc1cnc3oc(C4CC4)cc3n1)[C@H](CC1CCC1)CO2 [Compound I-104]
4. Cc1cccc(C)c1-c1cc2nc(n1)NS(=O)(=O)c1cccc(c1)C(=O)N(Cc1cnc3oc(C4CC4)cc3n1)[C@H](CC1CCCCC1)CO2 [Compound I-42]
5. Cc1cccc(C)c1-c1cc2nc(n1)NS(=O)(=O)c1cccc(c1)C(=O)N(Cc1cnc3oc(C4CC4)cc3n1)[C@H](COC(C)C)CO2 [Compound I-23]
6. Cc1cccc(C)c1-c1cc2nc(n1)NS(=O)(=O)c1cccc(c1)C(=O)N(Cc1cnc3oc(C(C)C)c(C)c3n1)[C@H](CCC1(C)CCC1)CO2 [Compound I-34]
7. Cc1cccc(C)c1-c1cc2nc(n1)NS(=O)(=O)c1cccc(c1)C(=O)N(Cc1cnc3oc(C4(C)CC4)cc3n1)[C@H](CC1(C)CC1)CO2 [Compound I-96]
8. Cc1cccc(C)c1-c1cc2nc(n1)NS(=O)(=O)c1cccc(c1)C(=O)N(Cc1cnc3oc(C(C)C)c(C)c3n1)[C@H](COC(C)C)CO2 [Compound I-10]

RESULT:
1. < 1000 nM
2. < 1000 nM
3. < 1000 nM
4. < 1000 nM
5. < 1000 nM
6. < 1000 nM
7. < 1000 nM
8. < 1000 nM

List reported EC50 for each of these molecules:
1. Cc1cccc(C)c1-c1cc2nc(n1)NS(=O)(=O)c1cccc(c1)CN(C(=O)c1cncc(N(C)C3CCC3)n1)[C@H](CC(C)(C)C)CO2 [II-36]
2. Cc1cccc(C)c1-c1cc2nc(n1)NS(=O)(=O)c1cccc(c1)C(=O)N(Cc1cnc3oc(C4CC4)cc3n1)[C@H](CC1C3(CC3)C13CC3)CO2 [Compound I-102]

RESULT:
["1000 to 3000 nM", "< 1000 nM"]

###

Answer each item with its documented EC50.
target: CFTR (F508del/MF-HBE cells) (Homo sapiens, UniProt P13569, DEL508-508); construct: human bronchial epithelial (HBE) cells derived from CF subjects heterozygous for F508del and a minimal function CFTR mutation (F508del/MF-HBE); endogenous in cells; host or cells: Primary human bronchial epithelial cells from CF subjects (F508del/MF genotype), differentiated at an air-liquid interface; test: Ussing chamber assay of CFTR-mediated short-circuit currents, Assay C (0.026 μM to 25 μM, 6 concentrations); type: cell-based; conditions: with 33 nM potentiator and 18 μM Tezacaftor, 20% human serum

Below are worked cases with known answers.
>  <compound>
Cc1cccc(CC(C)C)c1-c1nc2nc(c1C)OC[C@@H](C[C@@H]1CCCCO1)N(Cc1cnc3cc(C(C)(C)C)n(C)c3n1)C(=O)c1cccc(c1)S(=O)(=O)N2 (atropisomer, axis not shown)

>  <EC50>
< 1000 nM

$$$$
>  <compound>
Cc1cccc(CC(C)C)c1-c1nc2nc(c1C)OC[C@@H](CC(C)(C)C)N(Cc1cnc3nc(C4CC4)n(C)c3n1)C(=O)c1cccc(c1)S(=O)(=O)N2 (atropisomer, axis not shown)

>  <EC50>
< 1000 nM

$$$$
>  <compound>
Cc1cccc(C)c1-c1cc2nc(n1)NS(=O)(=O)c1cccc(c1)C(=O)N(Cc1cnc3cc(C(C)(C)C)n(C)c3n1)[C@@H](C(C1CCC1)C1CCC1)CO2

>  <EC50>
< 1000 nM

$$$$
>  <compound>
Cc1cccc(C)c1-c1cc2nc(n1)NS(=O)(=O)c1cccc(c1)C(=O)N(Cc1nc3cc(C4CC4)oc3cc1F)[C@H](COC(C)C)CO2

>  <EC50>
1000 to 3000 nM

$$$$
>  <compound>
COc1c2nc(nc1-c1c(C)cccc1C)NS(=O)(=O)c1cccc(c1)C(=O)N(Cc1cnc3cc(C(C)C)n(C)c3n1)[C@H](CC(C)(C)C)CC2

>  <EC50>
1000 to 3000 nM

$$$$
>  <compound>
Cc1cccc(CC2CCCC2)c1-c1nc2nc(c1C)OC[C@@H](CC(C)(C)C)N(Cc1cnc3oc(C4CC4)cc3n1)C(=O)c1cccc(c1)S(=O)(=O)N2 (atropisomer, axis not shown)

>  <EC50>
< 1000 nM

$$$$
>  <compound>
Cc1cccc(C)c1-c1cc2nc(n1)NS(=O)(=O)c1cccc(c1)C(=O)N(Cc1cnc3oc(C4(C)CC4)cc3n1)[C@H](C[C@@H]1CCCCO1)CO2

>  <EC50>
3000 to 30000 nM

$$$$
>  <compound>
Cc1cccc(CC(C)C)c1-c1nc2nc(c1C)OC[C@@H](CC(C)(C)C)N(Cc1cnc3oc(C4CC4)cc3n1)C(=O)c1cccc(c1)S(=O)(=O)N2 (atropisomer, axis not shown)

>  <EC50>
< 1000 nM

$$$$
>  <compound>
Cc1cccc(C)c1-c1cc2nc(n1)NS(=O)(=O)c1cccc(c1)C(=O)N(Cc1cnc3cc(C4(C)CC4)n(C)c3n1)[C@H](CC13CC(C1)C3)CO2

>  <EC50>
< 1000 nM

$$$$
>  <compound>
Cc1cccc(C)c1-c1cc2nc(n1)NS(=O)(=O)c1cccc(c1)C(=O)N(Cc1cnc3c(F)c(C4(C)CC4)n(C)c3n1)[C@H](CC1(C)CC1)CO2

>  <EC50>
< 1000 nM

$$$$

List reported EC50 for each of these compounds:
1. Cc1cccc(C)c1-c1nc2nc(c1C)OC[C@@H](CC13CC(C1)C3)N(Cc1cnc3cc(C4(C)CC4)n(C)c3n1)C(=O)c1cccc(c1)S(=O)(=O)N2
2. Cc1cccc(CC(C)C)c1-c1nc2nc(c1C)OC[C@@H](CC1(C)CC1)N(Cc1cnc3cc(C(C)(C)C)n(C)c3n1)C(=O)c1cccc(c1)S(=O)(=O)N2 (atropisomer, axis not shown)
3. CCC(C)(C)C[C@H]1COc2cc(-c3c(C)cccc3C)nc(n2)NS(=O)(=O)c2cccc(c2)C(=O)N1Cc1cnc2oc(C3CC3)cc2n1
4. COCCc1c(C(C)(C)C)n(C)c2nc(CN3C(=O)c4cccc(c4)S(=O)(=O)Nc4nc(cc(-c5c(C)cccc5C)n4)OC[C@H]3CC34CC(C3)C4)cnc12
5. Cc1cccc(C)c1-c1cc2nc(n1)NS(=O)(=O)c1cccc(c1)C(=O)N(Cc1cnc3cc(C4(C(F)(F)F)CC4)n(C)c3n1)[C@H](C[C@@H]1CCCO1)CO2
6. Cc1cccc(C)c1-c1cc2nc(n1)NS(=O)(=O)c1cccc(c1)C(=O)N(Cc1cnc3oc(C(C)(C)C)cc3n1)[C@H](COC(C)C)CO2
7. Cc1cccc(C)c1-c1cc2nc(n1)NS(=O)(=O)c1cccc(c1)C(=O)N(Cc1cnc3cc(C(C)(C)C(F)(F)F)n(C)c3n1)[C@H](CC13CC(C1)C3)CO2
8. Cc1cccc(CC(C)C)c1-c1nc2nc(c1C)OC[C@@H](C(C)C)N(Cc1cnc3cc(C(C)(C)C)n(C)c3n1)C(=O)c1cccc(c1)S(=O)(=O)N2 (atropisomer, axis not shown)

RESULT:
< 1000 nM
1000 to 3000 nM
1000 to 3000 nM
< 1000 nM
1000 to 3000 nM
3000 to 30000 nM
< 1000 nM
< 1000 nM

List reported EC50 for each of these compounds:
1. Cc1cccc(C)c1-c1nc2nc(c1C)OC[C@@H](CC(C)(C)C)N(Cc1cnc3oc(C(C)C)cc3n1)C(=O)c1cccc(c1)S(=O)(=O)N2
2. Cc1cccc(C)c1-c1cc2nc(n1)NS(=O)(=O)c1cccc(c1)C(=O)N(Cc1cnc3oc([C@H](C)CO)cc3n1)[C@H](CC1(C)CC1)CO2
3. Cc1cccc(C)c1-c1cc2nc(n1)NS(=O)(=O)c1cccc(c1)C(=O)N(Cc1cnc3cc(C(C)(C)C)n(C)c3n1)[C@H](C1CCCO1)CO2 (single isomer, unassigned) [IV-96]

RESULT:
1. 1000 to 3000 nM
2. 3000 to 30000 nM
3. < 1000 nM
